testSystem: furin, P09958;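 also: purified furin at 1:10 enzyme:substrate in 50 mM HEPES pH 7.5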
Sequence (P09958 whole entry): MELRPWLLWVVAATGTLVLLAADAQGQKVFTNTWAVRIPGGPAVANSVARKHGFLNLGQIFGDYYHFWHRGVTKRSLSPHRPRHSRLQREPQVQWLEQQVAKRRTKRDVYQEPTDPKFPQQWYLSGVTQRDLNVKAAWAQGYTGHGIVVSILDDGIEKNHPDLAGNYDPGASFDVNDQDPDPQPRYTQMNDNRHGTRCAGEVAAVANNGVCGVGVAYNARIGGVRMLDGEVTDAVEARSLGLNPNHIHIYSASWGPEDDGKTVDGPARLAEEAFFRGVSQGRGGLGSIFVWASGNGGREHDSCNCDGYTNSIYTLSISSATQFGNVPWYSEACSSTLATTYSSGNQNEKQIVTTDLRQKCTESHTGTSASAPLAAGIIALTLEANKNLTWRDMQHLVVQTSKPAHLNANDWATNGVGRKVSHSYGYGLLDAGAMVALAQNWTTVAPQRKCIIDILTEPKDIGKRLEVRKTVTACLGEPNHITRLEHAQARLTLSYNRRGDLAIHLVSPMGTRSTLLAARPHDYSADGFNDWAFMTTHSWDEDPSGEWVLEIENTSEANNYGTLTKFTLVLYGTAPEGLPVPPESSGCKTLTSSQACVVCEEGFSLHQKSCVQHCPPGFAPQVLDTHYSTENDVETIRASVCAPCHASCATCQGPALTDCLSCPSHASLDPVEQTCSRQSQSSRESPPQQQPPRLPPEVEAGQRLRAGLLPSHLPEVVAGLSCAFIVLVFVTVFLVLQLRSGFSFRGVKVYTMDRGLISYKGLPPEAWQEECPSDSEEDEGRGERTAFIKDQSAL
procedureDetails: furin cleavage Z-score vs untreated control; higher = more cleavage, active = 3.5 or more, inactive = 1 or less, 8 variable residues between constant flanks
conditionDescription: 15 min
The list shows a part of the results. The hit rate among all sequences tested is not known here.
Classes used: yes (1) for active, no (0) for inactive

INSERT INTO results (sequencedata, category) VALUES
  ('CAFTEAMTRYAGNASASA [HC1540]', 'no (0)'),
  ('CARTARAWGKAGNASASA [FS-3102]', 'no (0)'),
  ('CAIGGAGNNTAGNASASA [HC446]', 'no (0)'),
  ('CATTDCSGSWAGNASASA [HC1871]', 'no (0)'),
  ('CATTPCEGSWAGNASASA [HC73]', 'no (0)'),
  ('CARTSRRKRAAGNASASA [FS-1274]', 'yes (1)'),
  ('CARQKREWVKAGNASASA [FS-2753]', 'yes (1)'),
  ('CARTARAVSPAGNASASA [FS-2611]', 'yes (1)'),
  ('CARQKREWIKAGNASASA [FS-2752]', 'yes (1)'),
  ('CAPCTPLPAPAGNASASA [HC1195]', 'no (0)'),
  ('CAYGGRNRRVAGNASASA [FS-151]', 'yes (1)'),
  ('CAVCSCLWMMAGNASASA [HC526]', 'no (0)');
